Entries annotated with measured cytotoxicity improvement factor relative to parental TandAb
- targetOrSystem: T1, EGFRvIII expressed on cells (CHO^EGFRvIII, F98^EGFRvIII) (UniProt P00533 25-1210)
- T1 construct: whole, on cells; the vIII deletion must be applied; also called deletion mutant EGFRvIII
- experimentalDetails: cell-based or functional assay
// note: answer is a bare numeric in fold

Field: example entries. Status: answers known.
Lookup: cytotoxicity improvement factor relative to parental TandAb for EGFRvIII/CD3 TandAb with EGFRvIII binding domain ABC469, domain order (iv) VH^EGFRvIII-VL^CD3-VH^CD3-VL^EGFRvIII (bispecific antibody, part only; not given: CD3 domain and linkers, not shown: small tags and cut ends) chain, part: EVQLVQSGAEVKKPGESLKISCKGSGYSFNSYWIGWVRQMPGKGLEWMGIIYPGDSDTRYSPSFQGQVTISADKSISTAYLQWSSLKASDTAMYYCARLGSSWTNDAFDIWGQGTLVTVSSLTQPPSYESVSVSPGQTARITCSGDTLPKQYAYWYQQKPGQAPVLVIYKDSERPSGIPERFSGSSSGTTVTLTISGVQAEDEADYYCQSVDVSGTYVVFGGGTKLTVL ?
Found: 33.3

Lookup: Entry EGFRvIII/CD3 TandAb with EGFRvIII binding domain ABC471, domain order (i) VL^CD3(v64)-VH^EGFRvIII-VL^EGFRvIII-VH^CD3(v64) (bispecific antibody, part only; not given: CD3 v64 domain and linkers, not shown: small tags and cut ends) chain, part: EVQLVQSGAEVKKPGESLKISCKGSGYSFNSYWIGWVRQMPGKGLEWMGIIYPGDSANRYSPSFQGQVTISADKSISTAYLQWSSLKASDTAMYYCARLGSSWTNDAFDIWGQGTLVTVSSSYELTQPPSVSVSPGQTARITCSGDYLPKQYAYWYQQKPGQAPVLVIYKDTERPSGIPERFSGSSSGTTVTLTISGVQAEDEADYYCQSVDSSHPSVVFGGGTKLTVL has what cytotoxicity improvement factor relative to parental TandAb?
Found: 18.2

Further cases:
Lookup: cytotoxicity improvement factor relative to parental TandAb lookup needed for EGFRvIII/CD3 TandAb with EGFRvIII binding domain ABC471, domain order (iv) VH^EGFRvIII-VL^CD3-VH^CD3-VL^EGFRvIII (bispecific antibody, part only; not given: CD3 domain and linkers, not shown: small tags and cut ends) chain, part: EVQLVQSGAEVKKPGESLKISCKGSGYSFNSYWIGWVRQMPGKGLEWMGIIYPGDSANRYSPSFQGQVTISADKSISTAYLQWSSLKASDTAMYYCARLGSSWTNDAFDIWGQGTLVTVSSSYELTQPPSVSVSPGQTARITCSGDYLPKQYAYWYQQKPGQAPVLVIYKDTERPSGIPERFSGSSSGTTVTLTISGVQAEDEADYYCQSVDSSHPSVVFGGGTKLTVL , thanks.
Found: 69.8

Origin of values: patent US20160152728A1
